# CLint values compiled below
- Test system: Liver microsomes
- Test Description: Intrinsic clearance in human liver microsomes
- Assay type: ADME, Microsome

Example molecules with recorded CLint:
>  <Smiles Entry>
O=C1O[C@]2(CC[C@@H](N(CC(F)(F)F)C(=O)Nc3cnc(-c4ccccc4)cn3)CC2)Cc2ccccc21

>  <CLint>
< 7 mL/min/kg

$$$$
>  <Smiles Entry>
CN(C(=O)Nc1cnc(-c2ccccc2)cn1)[C@H]1CC[C@@]2(CC1)Cc1cnccc1C(=O)O2

>  <CLint>
< 26 mL/min/kg

$$$$
>  <Smiles Entry>
CN(C(=O)Nc1cnc(-c2ccccc2)cn1)[C@H]1CC[C@@]2(CC1)OC(=O)c1ccncc12

>  <CLint>
< 7 mL/min/kg

$$$$
>  <Smiles Entry>
CN(C(=O)Nc1cnc(-c2ccccc2)cn1)[C@H]1CC[C@]2(CC1)OC(=O)c1ccncc12

>  <CLint>
< 6 mL/min/kg

$$$$

Read the next record carefully.
// CLint lookup, molecule = CN(C(=O)Nc1ccn(-c2ccccc2F)n1)[C@H]1CC[C@]2(CC1)OC(=O)c1ccncc12 , result: < 7 mL/min/kg
